Entry source: patent US20210017275A1

Target: T1, human Siglec-5 expressed on human primary cells (human, UniProt O15389 17-551)
T1 construct: Endogenous receptor on human primary monocytes, dendritic cells, macrophages and neutrophils; also called CD170
T1 sequence: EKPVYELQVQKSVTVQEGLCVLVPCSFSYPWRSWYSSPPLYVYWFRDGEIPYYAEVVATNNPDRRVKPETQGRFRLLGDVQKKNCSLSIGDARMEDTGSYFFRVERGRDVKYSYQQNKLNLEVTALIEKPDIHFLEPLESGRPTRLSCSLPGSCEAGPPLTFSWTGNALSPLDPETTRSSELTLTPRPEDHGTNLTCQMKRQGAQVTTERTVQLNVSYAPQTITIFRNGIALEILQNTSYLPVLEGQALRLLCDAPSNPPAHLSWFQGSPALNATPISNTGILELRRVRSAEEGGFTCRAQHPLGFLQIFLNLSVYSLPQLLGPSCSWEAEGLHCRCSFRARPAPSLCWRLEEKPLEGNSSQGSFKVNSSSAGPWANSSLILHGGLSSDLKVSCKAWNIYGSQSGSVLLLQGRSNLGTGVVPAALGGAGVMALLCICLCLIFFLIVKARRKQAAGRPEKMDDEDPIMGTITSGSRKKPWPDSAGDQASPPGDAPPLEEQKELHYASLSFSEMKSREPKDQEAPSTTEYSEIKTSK
Assay: flow cytometry, human primary macrophages, 10 ug/ml mAb
Let's look at some binders and their measured MFI.
Quick one: just the number, no unit, thanks!

Below, each entry is followed by its recorded MFI result.
binder="anti-Siglec-5 monoclonal antibody 11C6 (antibody, IgG1, V domains shown, also called 1106) VH: QVQLQQSGAELVKPGASVKLSCKASGYTFTEYTIHWVKQRSGQGLEWIGWFYPGSGSIKYNEKFKDKATLTAVKSSSTVYMEFSRLTSEDSAVYFCARQDYDGLGFAYWGQGTLVTVSA VL: DVLMTQTPLSLPVSLGDQASISCRSSQTIVHSNGNTYLEWYLQKPGQSPKLLIYKVSNRFSGVPDRFSGSGSGTDFTLKISRVEAEDLGVYYCFQGSHVPWTFGGGTKLEIK" measured_number=451
binder="anti-Siglec-5 monoclonal antibody 7A5 (antibody, IgG1, V domains shown) VH: EIQLQQSGPELVKPGASVKVSCKASGYSFTDYNMYWVKQSHGKSLEWIGYIDPYNGGTTYNQKFKGKATLTVDKSSSTAFMHLNSLTSEDSAVFYCAFYYGYYGVPYWGQGTLVTVSA VL: DIVMIQSQKFMSTSVGDRVSVTCKASQNVDTNVAWYQQKPGQSPKALIYSASYRYSGVPDRFTGSGSGTDFTLTISNVQSEDLAEYFCQQYNSFPLTFGSGTKLEIK" measured_number=445

// below: MFI requested for another binder
The recorded MFI for entry anti-Siglec-5 monoclonal antibody 9A5 (antibody, IgG1, V domains shown) VH: QVQLQQSGPELVEPGASVKVSCKASGYAFTSYNMYWVKQSHGKSLEWIGYIDPYNGGTYYDQKFKGRATLTVDKSSSTAHMHLNSLTSEDSAVYYCVFFYEYDGFPYWGQGTLVTVSA VL: DIVLTQSPTLMSASPGEKVTMTCSASSSVSYMYWYQQKPRSSPKPLIYLTSNLASGVPARFSGSGSGTSYSLTISSMEAEDAATYYCQQWSSNPLTFGAGTKLELK equals 471
